Ref: ChEMBL document CHEMBL1140947

Below, each of the molecules is paired with its reported Activity value.
system: Rattus norvegicus; assay: Cardioprotective effect in Langendorff perfused Wistar rat hearts assessed as ischemic damage measured by rate-pressure product-120 at 40 mg/kg, ip; type: functional, Heart; conditions: route intraperitoneal

MOLECULE	Activity (%)
CC(=O)Nc1ccc(CN2C[C@@]3(CC(C)(C)Oc4ccccc43)OCC2=O)cc1	64
CC(=O)Nc1ccc(CN2C[C@]3(CC(C)(C)Oc4ccccc43)OCC2=O)cc1	27
CC1=Nc2ccc(Cl)cc2S(=O)(=O)N1 [DIAZOXIDE]	45
CC(=O)Nc1ccc(CN2CC3(CC(C)(C)Oc4ccccc43)OCC2=O)cc1 (racemic)	59
